Molecular target: T1, wildtype feline IL-31 protein (Feline_IL31_wildtype) (feline)
T1 construct: Full length feline IL-31 with C-terminal His tag, secreted from ExpiCHO cells; also called fIL-31
T1 chain: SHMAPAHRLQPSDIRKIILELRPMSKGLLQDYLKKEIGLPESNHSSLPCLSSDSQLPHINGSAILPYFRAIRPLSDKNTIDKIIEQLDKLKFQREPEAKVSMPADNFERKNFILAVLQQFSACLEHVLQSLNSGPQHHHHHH
Assay: SPR (Biacore), IL-31 on chip, 1:1 fit
measurement-name: Kd (nM)
Response body: numeric value in nM, unit text excluded.

Examples with their reported Kd follow.
binder="Feline 15H05 2.3 (antibody, V domains shown, Feline heavy and kappa constant regions) VH: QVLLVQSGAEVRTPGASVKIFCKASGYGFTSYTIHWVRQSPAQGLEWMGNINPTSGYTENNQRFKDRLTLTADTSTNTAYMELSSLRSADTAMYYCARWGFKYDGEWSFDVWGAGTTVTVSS VL: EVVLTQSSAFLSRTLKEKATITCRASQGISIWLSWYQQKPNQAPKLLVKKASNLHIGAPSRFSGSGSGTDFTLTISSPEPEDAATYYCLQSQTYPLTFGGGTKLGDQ" number=1.57
binder="Feline 15H05 1.1 FW1_2 (antibody, V domains shown) VH: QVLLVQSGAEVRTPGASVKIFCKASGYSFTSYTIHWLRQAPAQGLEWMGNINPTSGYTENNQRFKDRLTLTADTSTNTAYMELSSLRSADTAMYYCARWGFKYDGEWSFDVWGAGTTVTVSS VL: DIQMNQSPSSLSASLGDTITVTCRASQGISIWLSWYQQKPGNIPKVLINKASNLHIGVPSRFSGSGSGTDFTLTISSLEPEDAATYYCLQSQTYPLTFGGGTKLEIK" number=0.887

Now turn to the next binder.
Query: Please give the measured Kd for this binder: Feline 15H05 3.2 (antibody, V domains shown, Feline heavy and kappa constant regions) VH: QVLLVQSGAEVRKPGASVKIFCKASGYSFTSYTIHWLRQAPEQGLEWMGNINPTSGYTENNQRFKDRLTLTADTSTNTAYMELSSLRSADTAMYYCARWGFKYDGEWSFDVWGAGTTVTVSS VL: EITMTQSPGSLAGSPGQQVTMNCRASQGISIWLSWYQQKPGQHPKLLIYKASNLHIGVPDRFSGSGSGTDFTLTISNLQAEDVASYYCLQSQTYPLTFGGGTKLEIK
Reply: 12.6
